Tested on: SNB-19 CNS
method_summary: NCI-60 one-dose screen, 48 h
settings: 10 µM unless noted
Compounds without any hit were thinned out: in the full panel of roughly 83,000, 20% have a hit. Activity calls are given as the source filed them. How the source made its calls: active means growth percent below 10; inactive means the rest.
Write down the outcome that applies. Available outcomes: active, inactive

compound	system	class_name
CSc1nnc(-c2cc3c([nH]c4ccccc43)c(-c3cccc(O)c3)n2)n1-c1ccccc1	SNB-19 CNS	inactive
COCCn1cc(-c2csc(-c3cn(C)c4ccc(Br)cc34)n2)c2cccnc21	SNB-19 CNS	inactive
C/C(Cc1ccc(Cl)cc1)=C(\c1ccc(O)cc1)c1ccc(Cl)cc1	SNB-19 CNS	inactive

Data request: I'd appreciate the recorded outcome for `O=S(=O)(NCCNc1nccc(-c2c(-c3ccc(F)c(O)c3)nc3occn23)n1)c1ccc(Cl)cc1` from this test.
Data returned: inactive

Data request: I'd appreciate the recorded outcome for `O=S(=O)(Nc1cc(F)cc(Cl)c1)c1ccc(-c2cnc(C3CC3)o2)cc1` from this test.
Data returned: inactive

Data request: I'd appreciate the recorded outcome for COc1cc2c(cc1OC)C(C)N(S(N)(=O)=O)CC2 (configuration not stated) from this test.
Data returned: inactive

Data request: I'd appreciate the recorded outcome for `CC(=O)O[C@@H]1C[C@]2(C(C)C)O[C@@]1(C)[C@@H]1CCC(C)=C1[C@@H]2OC(=O)/C=C/c1ccccc1` from this test.
Data returned: inactive
